- assay summary: Cytotoxicity assay (MTT) in non-tumoral MRC-5 cells
- Format: cell-based
- condition: human, mrc-5 cells, IC50 class, non-tumoral cell line
quantity name: CC50

### Prompt Query: CC50; subject: N#CC[Se]C(=O)c1cccc(C(=O)[Se]CC#N)c1
### Response > 50 µM

###

- System: Colo 320/MDR-LRP multidrug resistant overexpressing ABCB1 (MDR1)-LRP
- assay summary: cells
- Assay type: cell-based, human
- condition: Homo sapiens, 24 h, read-out: Colo 320 Cytotoxicity
quantity name: IC50

Answered cases to consult:
Cc1ccc(C(=O)[Se]CCCC#N)cc1 [Compound 9, Se-(cyanopropyl) 4-methylbenzoselenoate] : 1000 to 10000 nM
N#CCC[Se]C(=O)c1ccc(Cl)cc1Cl : 1000 to 10000 nM

For each listed entry, give its IC50.
1. CC(=O)C[Se]C(=O)c1cccc(C(=O)[Se]CC(C)=O)c1
2. CC(C)(C)c1ccc(C(=O)[Se]CC#N)cc1
3. N#CCCC[Se]C(=O)c1ccc(Cl)cc1 [Compound 5, Se-(cyanopropyl) 4-chlorobenzoselenoate]
4. N#CC[Se]C(=O)c1ccc(Cl)cc1Cl
5. N#CC[Se]C(=O)Cc1ccccc1 [Compound 11, Se-(cyanomethyl) 2-phenylethaneselenoate]
6. CC(=O)Oc1ccccc1C(=O)[Se]CC#N [Compound 17, Se-(cyanomethyl) 2-acetoxybenzoselenoate]

### Response
1. < 1000 nM
2. 1000 to 10000 nM
3. 1000 to 10000 nM
4. 1000 to 10000 nM
5. < 1000 nM
6. 1000 to 10000 nM

###

- assay summary: Cytotoxicity assay (MTT) in non-tumoral MRC-5 cells
- Type: cell-based
- condition: human, MRC-5 embryonal lung fibroblast cells (non-tumoral), IC50 class, non-tumoral cell line
Would you mind telling me the reported IC50 at 24 h of each entry?

Sample records with IC50 at 24 h:
CC(=O)C[Se]C(=O)c1cccc(C(=O)[Se]CC(C)=O)c1 : 1 to 10 µM
CC(=O)C[Se]C(=O)c1cc(C(=O)[Se]CC(C)=O)cc(C(=O)[Se]CC(C)=O)c1 : < 1 µM
N#CC[Se]C(=O)c1cc(C(=O)[Se]CC#N)cc(C(=O)[Se]CC#N)c1 : > 50 µM
CC(=O)C[Se]C(=O)c1ccc(C(=O)[Se]CC(C)=O)cc1 : < 1 µM

Turning now to a further record.
### Prompt Reported IC50 at 24 h, molecule N#CC[Se]C(=O)c1ccc(C(=O)[Se]CC#N)cc1 : ____
### Response > 50 µM

###

- System: Colo 320/MDR-LRP multidrug resistant overexpressing ABCB1 (MDR1)-LRP
- assay summary: cells
- Assay type: cell-based, human
- condition: Homo sapiens, 24 h, read-out: Colo 320 Cytotoxicity
quantity name: IC50

Look over these answered cases.
N#CC[Se]C(=O)c1ccc(F)cc1 [Compound 1, Se-(cyanomethyl) 4-fluorobenzoselenoate] : 1000 to 10000 nM
N#CC[Se]C(=O)c1cccc(C(=O)[Se]CC#N)c1 : 1000 to 10000 nM
CC(=O)C[Se]C(=O)c1ccc(C(=O)[Se]CC(C)=O)cc1 : < 1000 nM

// each compound listed below needs its IC50
1. N#CC[Se]C(=O)c1ccc(Cl)cc1 [Compound 3, Se-(cyanomethyl) 4-chlorobenzoselenoate]
2. N#CC[Se]C(=O)c1ccccc1 [Compound 6, Se-(cyanomethyl) benzoselenoate]
3. N#CCC[Se]C(=O)c1ccc(Cl)cc1 [Compound 4, Se-(cyanoethyl) 4-chlorobenzoselenoate]
4. N#CC[Se]C(=O)c1cc(C(=O)[Se]CC#N)cc(C(=O)[Se]CC#N)c1
5. CC(=O)C[Se]C(=O)c1cc(C(=O)[Se]CC(C)=O)cc(C(=O)[Se]CC(C)=O)c1

### Response
1. 1000 to 10000 nM
2. 1000 to 10000 nM
3. 1000 to 10000 nM
4. 1000 to 10000 nM
5. < 1000 nM
